test system: DU-145 prostate; assay: NCI tumour cell line growth inhibition, 48 h; in the data active = GI50 below about 0.43 µM; inactive = the rest
Lab note: assign the record to one of Yes = active, No = inactive

C/C=C(/C)C(=O)OC1C=C(CO)C(=O)C(OC(=O)C2(C)OC2C)C1C(C)C (configuration not stated) | No
COC(=O)COc1ccccc1/C=C1/N=C(c2ccccc2)N(c2c(C)n(C)n(-c3ccccc3)c2=O)C1=O | No
CCN1C[C@@H](C)n2c(c(O)c3c(=O)n(Cc4ccc(F)c(Cl)c4)nc(C(=O)NC)c32)C1=O | No
N#Cc1ncc(-c2ccc(C(F)(F)F)cc2)c(NC2CCCCCC2)n1 | No

What classification did CC[C@]1(O)CC2CN(CCc3c([nH]c4ccccc34)C(C(=O)OC)(c3cc4c(cc3OC)N(C=O)[C@H]3[C@@](O)(C(=O)OC)[C@H](OC(C)=O)[C@]5(CC)[C@@H]6C[C@@H]6CN6CC[C@]43[C@@H]65)C2)C1 (some centres not stated) end up with in this test?
Yes

What classification did `Oc1c(Cl)cc(Cl)c(Cl)c1Cc1c(O)c(Cl)cc(Cl)c1Cl` end up with in this test?
No

What classification did `COc1ccc(/C=C/C(=O)C(=O)/C=C/c2ccc(OC)c(OC)c2)cc1OC` end up with in this test?
No

What classification did COc1cc(C2C=C(C)N=C3SC=C(C)N32)cc(OC)c1OC (configuration not stated) end up with in this test?
No

What classification did `CN1CCN(CCCCCOc2cc(O)c3c(=O)cc(-c4ccccc4)oc3c2)CC1` end up with in this test?
No

What classification did CC(=O)NC(CCc1ccc(Cl)c(Cl)c1)c1cccc(O)c(=O)c1 (configuration not stated) end up with in this test?
No

---

system: NCI-H460 lung; assay: NCI tumour cell line growth inhibition, 48 h
PROPERTY: TGI (µM)
Form entry: value (µM) — number only.

# example entries with known answers
C=C(CN(C)C)C(=O)c1ccccc1 | 37.5
CC(NC1=NCCO1)c1ccsc1 (centres undefined) | 33.2
O=C(CCl)N1CCN(c2ccccc2)CC1 | 34.9

Attention now shifts to the item below.
Report TGI on NCI-H460 lung for this entry: `CN(C)C/C=C/C(=O)Nc1ccc(C(=O)Nc2cccc(Nc3ncc(Cl)c(-c4c[nH]c5ccccc45)n3)c2)cc1`
0.904

---

tested on: KM12 colon; assay: NCI tumour cell line growth inhibition, 48 h
log10(TGI) values by entry
Recall that a logarithmic scale is used here: each number is log10 of TGI in µM.

# example entries with known answers
CN(C)C/C=C/C(=O)Nc1ccc(C(=O)Nc2cccc(Nc3ncc(Cl)c(-c4c[nH]c5ccccc45)n3)c2)cc1 | -0.63
COc1ccc(C[C@@H]2OC3(C=CC(=O)CC3Sc3ccccc3)O[C@H]2Cc2ccc(OC)cc2)cc1 (some centres not stated) | 0.75
C=CC(=O)C#Cc1cnc(OC)nc1OC | 1.48
COc1ccc(/C=C/C(=O)C(=O)/C=C/c2ccc(OC)c(OC)c2)cc1OC | 0.56
COc1cc2c3c(n(CCCNCCCCN)c(=O)c2cc1OC)-c1cc2c(cc1C3=O)OCO2 | 1.34
COc1ccc(/C=C/c2cc(O)cc(OC3OC(CO)C(O)C(O)C3O)c2)cc1O (configuration not stated) | 1.94
Oc1c(Cl)cc(Cl)c(Cl)c1Cc1c(O)c(Cl)cc(Cl)c1Cl | 1.06
NNC(=O)N/N=C(/CC1(O)C(=O)Nc2ccc(Br)cc21)c1ccccc1 (configuration not stated) | 1.94
COC(=O)NCCc1[nH]nc2c1C(=O)C=C(Nc1ccccc1OC)C2=O | 1.81
CCOC(=O)C(Cc1ccccc1)n1c(O)c(/C=N/c2ncc(Cc3ccc(Cl)cc3Cl)s2)sc1=S (configuration not stated) | 1.06

Let me know recorded log10(TGI) for CC[C@]1(O)CC2CN(CCc3c([nH]c4ccccc34)C(C(=O)OC)(c3cc4c(cc3OC)N(C=O)[C@H]3[C@@](O)(C(=O)OC)[C@H](OC(C)=O)[C@]5(CC)[C@@H]6C[C@@H]6CN6CC[C@]43[C@@H]65)C2)C1 (some centres not stated) , thanks.
-2.41

Let me know recorded log10(TGI) for `CCN(CC)Cc1cc(Nc2ccnc3ccc(OC)cc23)ccc1O` , thanks.
1.20

Let me know recorded log10(TGI) for COc1ccc(C(=O)C(c2ccc(OC)cc2)C2(O)C(=O)Nc3c(Cl)cc(Cl)cc32)cc1 (configuration not stated) , thanks.
1.57

---

system: CCRF-CEM leukemia; test: NCI tumour cell line growth inhibition, 48 h; in the data active = GI50 below about 0.43 µM; inactive = the rest
Lab note: assign the record to one of true for active, false for inactive

Example entries and their recorded answers appear below.
CN1CCC(=C(c2ccc(Cl)cc2)c2ccccn2)CC1 | false
CC(=O)NC(CCc1ccc(Cl)c(Cl)c1)c1cccc(O)c(=O)c1 (stereo not drawn) | true

What classification did `[pH]1p2[pH]p3p1p3[pH]2.c1cc[c]([Ge]([c]2ccccc2)[c]2ccccc2)cc1.c1cc[c]([Ge]([c]2ccccc2)[c]2ccccc2)cc1.c1cc[c]([Ge]([c]2ccccc2)[c]2ccccc2)cc1` end up with in this test?
false

What classification did `CC(C)(Oc1cccc(N2CCC[C@@H](C(=O)N(Cc3ccc(-c4cn[nH]c4)cc3)C3CC3)C2)c1)C(=O)N1CCNCC1` end up with in this test?
false

What classification did `Cc1ccc2c(-c3ccnc(Nc4cccc(C(F)(F)F)c4)n3)c(-c3ccccc3)nn2n1` end up with in this test?
false

What classification did `Cc1cc2c3c(nc4ccccc42)C(=O)c2cccnc2-c3n1` end up with in this test?
true

What classification did `N=C1C(c2nc3ccccc3c(=O)[nH]2)=C(O)CN1c1cccc(Cl)c1` end up with in this test?
false

What classification did `CN1C(=O)[C@@H](CC2CCCC2)N(C2CCCC2)c2nc(Nc3cc(Cl)c(O)c(Cl)c3)ncc21` end up with in this test?
false

---

test system: HCT-15 colon; assay: NCI tumour cell line growth inhibition, 48 h
PROPERTY: TGI

Let me know recorded TGI for `O=C(Nc1ccc(Nc2ccc(NC(=O)c3ccccc3)c3c2C(=O)c2ccccc2C3=O)c2c1C(=O)c1ccccc1C2=O)c1ccccc1` , thanks.
> 100 µM

---

system: OVCAR-8 ovarian; assay: NCI tumour cell line growth inhibition, 48 h
PROPERTY: TGI

CC1CN1c1c(C(=O)/C=C/c2ccc(F)cc2)c(-c2ccccc2)nn(C)c1=O (stereo not given) | 27.6 µM
O=S(=O)(N=[Se](=O)(c1ccccc1)c1ccccc1)c1ccccc1 | > 100 µM
COC(=O)C(Cc1c(-c2[nH]c3ccccc3c2CC(NC(C)=O)C(=O)OC)[nH]c2ccccc12)NC(C)=O (stereo not given) | > 100 µM
O=C(Nc1ccc(Nc2ccc(NC(=O)c3ccccc3)c3c2C(=O)c2ccccc2C3=O)c2c1C(=O)c1ccccc1C2=O)c1ccccc1 | > 100 µM

Let me know recorded TGI for `Cc1c(CN2CCOCC2)c(CN2CCOCC2)c(C)n1-c1ccc(Cl)cn1` , thanks.
> 100 µM

Let me know recorded TGI for CC(O)C1(O)C(O)CC(OC2c3cc4c(c(O)c3[C@@H]3C[C@@]2(C)OC32C=c3cc[nH]c3=N2)C(=O)c2cccc(O)c2C4=O)OC1C (stereo not given in full) , thanks.
4.75 µM

Let me know recorded TGI for `O=C1CC[C@@H](S(=O)(=O)c2ccccc2)[C@H](/C=C/c2ccccc2)O1` , thanks.
> 100 µM

Let me know recorded TGI for OCC1NC(CO)C(O)C1O (stereo not given) , thanks.
> 100 µM

Let me know recorded TGI for `Cc1ccc(S(=O)(=O)NCCCSCCN)cc1` , thanks.
> 100 µM

Let me know recorded TGI for `Cc1cc(N(C)c2ccccc2)nc(N(C)c2ccccc2)n1` , thanks.
> 100 µM

Let me know recorded TGI for `Cc1cc(NS(=O)(=O)c2ccc(NC(=O)c3cccc4c(Nc5ccc(S(=O)(=O)Nc6cc(C)on6)cc5)c5ccc(Cl)cc5nc34)cc2)no1` , thanks.
> 100 µM

---

test system: MDA-MB-435; experiment: NCI tumour cell line growth inhibition, 48 h
PROPERTY: TGI

Report TGI on MDA-MB-435 for this entry: COc1ccc(/C=C/C(=O)OC2CC34CCNC35CC(OC5(OC)C2OC)c2ccc(OC)c(O)c24)cc1O (stereo not given)
> 100 µM

Report TGI on MDA-MB-435 for this entry: COc1ccc(/C=C/c2cc(O)cc(OC3OC(CO)C(O)C(O)C3O)c2)cc1O (stereo not given)
> 100 µM

Report TGI on MDA-MB-435 for this entry: `Cc1ncnc2c1ccn2[C@@H]1C[C@H](Oc2cc(C(F)F)c(F)c3c2CNCC3)[C@@H](O)[C@H]1O`
> 100 µM

Report TGI on MDA-MB-435 for this entry: O=[N+]([O-])c1ccc(C2=NOC(c3ccccc3)N2C23CC4CC(CC(C4)C2)C3)cc1 (stereo not given)
44.5 µM

Report TGI on MDA-MB-435 for this entry: `CC(=O)n1nc(-c2[nH]c(C)c(-c3nn(C(C)=O)c(=S)o3)c2C)oc1=S`
> 100 µM
